Test: inhibitors of platelet dense granule secretion, primary screen, cell-based, MLPCN, human platelets (AID 1663)
Details: human platelet-rich plasma, SFLLRN dense granule ATP release, luminescence; active compounds read high;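 compounds screened at 7.5 µM in platelet-rich plasma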
The whole screen tested about 300,000 compounds, of which about 660 (0.22%) were called active. The sample as a whole holds a higher share of actives than the screen did.
observation type: inhibition (%)
Could you give me the number in %? Just the number is fine.

response.value for Cc1csc(Nc2ccc(Cl)cc2)[n+]1-c1ccc(Cl)cc1 (field: inhibition) = -1.67

Lab note: Cc1nc2cc(NC(=O)NC3CC3)ccc2n1C gave inhibition of -7.31

# compound O=C(CCN1CCc2ccccc2C(O)(c2ccccc2)C1)c1ccc2c(c1)OCCO2 (stereo unspecified) ; its inhibition = -76.9

Lab note: measured inhibition of CCN1CCN(C(=O)c2ccc(CN(c3ccc(C)c(C)c3)S(C)(=O)=O)cc2)CC1 was 3.03

The compound COC(=O)c1c(NC(=O)c2ccccc2F)sc2c1C(C(=O)OC)CC2 (stereo unspecified) showed inhibition equal to 2.31

What the record says about O=C(c1ccco1)N1CCN(CCOc2ccccc2)CC1 : inhibition is -1.03

So for Cc1nc(CC(=O)NNS(=O)(=O)c2ccc(F)c(Cl)c2)cs1 , the logged inhibition turned out to be 12.2

Per the record, COc1ccccc1OCc1ccc(C(=O)N2CCN(C)CC2)o1 has inhibition of -1.97

The reported value for COC(=O)c1c(NC(=O)CN2C(=O)NC(CCc3ccccc3)C2=O)sc2c1CCCCC2 (stereo unspecified) in terms of inhibition is -0.263

Measured inhibition of O=C(Nc1ccncc1)Nc1ccc(F)cc1 : 4.47

The compound Cn1nc(C(F)(F)F)c(C(=O)Nc2cccc(C(F)(F)F)c2)c1SCc1ccc(Cl)cc1 showed inhibition equal to 0.563

----------
Provide the reported inhibition of each item.
Experiment: inhibitors of platelet dense granule secretion, primary screen, cell-based, MLPCN, human platelets (AID 1663)
Details: human platelet-rich plasma, SFLLRN dense granule ATP release, luminescence; active compounds read high;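 compounds screened at 7.5 µM in platelet-rich plasma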
Hit rate of the full screen: of about 300,000 compounds, about 660 (0.22%) were called active. The list comes from a sample in which actives are over-represented; it also holds close analogues and randomly drawn compounds.
Give the number; % is assumed, so skip it.

inhibition recorded for this molecule, CCOC(=O)C1C(c2ccc(Cl)cc2)NC(=S)NC1(O)C(F)(F)F (stereo not given) , is -3.31

Recorded result, CCOC(=O)Cc1cc(=O)[nH]c(/N=C(\N)Nc2ccc(OC)cc2)n1 , inhibition: 8.61

The molecule listed as COc1ccc(Cc2nnc(NC(=O)c3ccc(OC)cc3OC)s2)cc1 has a reported inhibition of -12.4

Input CCOc1ccc(C(=O)Nc2ccc(S(=O)(=O)NCC3CCCO3)cc2)cc1OCC (stereo not given) . Output inhibition: -1.27

Recorded result, CCc1cc(CNC(=O)CC2C(=O)NCCN2CC2CCCCC2)on1 (stereo not given) , inhibition: 4.79

Lookup result for O=C(COC(=O)c1ccc[nH]c1=O)Nc1ccc2c(c1)OC(F)(F)O2 ; measured inhibition: 5.92

Memo: Cc1cccc(Cn2c(N3CCN(c4ccccc4)CC3)nc3c2c(=O)n(C)c(=O)n3C)c1 , reported inhibition: 1.96

The molecule listed as CNC(=S)N1CCC(NC(=O)C(Cc2ccc(F)cc2)NC(C)=O)CC1 (stereo not given) shows inhibition equal to 0.885

Record COc1cc2ccccc2cc1C(=O)Nc1nc(C)c(C(C)=O)s1 . Reported inhibition: -6.84

inhibition reported for this molecule COc1ccccc1C(=O)COC(=O)CNS(=O)(=O)c1ccc(NC(C)=O)cc1 : 6.24
